// minimal effective dose lookup, one value per entry
test system: Rattus norvegicus; assay: Effect of compound on plasma level of progesterone in ACTH treated pseudopregnant rats when administered orally; assay type: functional; conditions: po, read-out: MED
Write the number in mg/kg without appending the unit.

Worked examples, 2 compounds total:
Q: Suppose we examine the compound CC12O[C@]13CC[C@@H]1[C@H](CCC4(C)[C@H]1CC[C@]4(C)O)C3(C)C[C@@H](C#N)C2=O (some centres undefined) ; what minimal effective dose value has been reported?
Ans: 20

Q: Field request: minimal effective dose | item: CC12CC[C@H]3[C@@H](CC[C@@]45OC4C(=O)[C@H](C#N)CC35C)[C@@H]1CC[C@]2(C)O (some centres undefined)
Ans: 500

New cases:
Q: Any idea what minimal effective dose was measured for CC12CC[C@H]3[C@@H](CC[C@@]45OC4(C)C(=O)[C@H](C#N)CC35C)[C@@H]1CCC2O (some centres undefined) ?
Ans: 5

Q: Entry under review: CC12CC[C@H]3[C@@H](CC[C@@]45OC4C(=O)[C@H](C#N)CC35C)[C@@H]1CCC2O (some centres undefined) . Reported minimal effective dose?
Ans: 500

* * *

# reported MED10; entries follow
system: Rattus norvegicus; test: Minimum effective dose for 100% interruption of pregnancy in rat when compound was administered perorally; assay type: functional
Answer in mg/kg, number only, no unit symbol.

Use the examples below as a reference point.
Q: Record request: MED10 value, item CC1(C)C2=CCC3C(CCC4(C)C3CC[C@]4(C)O)C2(C)Cc2cnoc21 (stereo partly drawn)
Ans: 25

Q: Item under review: CC12C[C@@H](C#N)C(=O)C=C1CCC1C2CCC2(C)C(O)CCC12 (stereo partly drawn) . Reported MED10?
Ans: 1000

Q: Entry CC12CC[C@H]3[C@@H](CC[C@@]45OC4(C)C(=O)[C@H](C#N)CC35C)[C@@H]1CCC2O (stereo partly drawn) : reported MED10 = ?
Ans: 125

Q: Entry under review: CC1(C)C(=O)[C@H](C#N)CC2(C)C1=CCC1C2CCC2(C)C1CC[C@]2(C)O (stereo partly drawn) . Reported MED10?
Ans: 6

Q: What does the record list as MED10 for CC1C[C@H]2[C@@H]3CCC(O)C3(C)CC[C@@H]2C2(C)C[C@@H](C#N)C(=O)C3O[C@]132 (stereo partly drawn) ?
Ans: 12

Q: Name the reported MED10 value associated with the molecule CC12CC[C@H]3[C@@H](CC[C@@]45OC4C(=O)[C@H](C#N)CC35C)[C@@H]1CCC2O (stereo partly drawn)
Ans: 500

Next:
Q: Need MED10 of CC12CC[C@H]3[C@@H](CC[C@@]45OC4C(=O)[C@H](C#N)CC35C)[C@@H]1CC[C@]2(C)O (stereo partly drawn) , thanks.
Ans: 500

Q: Form field: reported MED10 of CC12O[C@]13CCC1C(CCC4(C)C1CC[C@]4(C)O)C3(C)Cc1cnoc12 (stereo partly drawn)
Ans: 192

Q: # query: MED10 of entry CC12O[C@]13CC[C@@H]1[C@H](CCC4(C)[C@H]1CC[C@]4(C)O)C3(C)C[C@@H](C#N)C2=O (stereo partly drawn)
Ans: 50
